assay: Metabolic stability in human liver microsomes assessed as parent compound remaining at 2 uM preincubated for 10 mins followed by compound addition and measured after 60 mins by LC-MS/MS analysis; assay type: ADME, Microsome; conditions: read-out: Stability

- compound: "CC(C)(c1ccc(OCC2CCN(CC3CCN(c4ccc5c(c4)C(=O)N(C4CCC(=O)NC4=O)C5=O)CC3)CC2)cc1)c1ccc(OC[C@H](O)CCl)cc1 (stereo partly specified)"
  remaining at 1 h, 2 µM: "94%"

---

experiment: Tmax in beagle dog at 1 mg/kg, iv measured by LC-MS/MS analysis; assay type: ADME, organism-based, Canis lupus familiaris; conditions: in vivo
quantityName: Tmax (min)

- molecule: "CC(C)(c1ccc(OCC2CCN(CC3CCN(c4ccc5c(c4)C(=O)N(C4CCC(=O)NC4=O)C5=O)CC3)CC2)cc1)c1ccc(OC[C@H](O)CCl)cc1 (stereo partly specified)"
  quantityName: "Tmax"
  number: 6
